Recorded IC50 values (CDK2 (human) (UniProt P24941)) are given below.

Recorded results for 3 compounds are shown here.
{"columns": ["compound", "measured.attribute", "meas.value"],
 "data": [
  ["Cc1ccccc1CNc1nccc(-c2c[nH]nc2C(C)C)n1", "IC50", "< 1 µM"],
  ["Cc1ccccc1CNc1nccc(-c2c[nH]nc2C)n1", "IC50", "< 10 µM"],
  ["Cc1n[nH]cc1-c1ccnc(NC2Cc3ccccc3C2)n1", "IC50", "< 5 µM"]
]}

Each compound below has a recorded value; state its IC50.
1. CCC(CC)c1[nH]ncc1-c1ccnc(NC2CCN(C(=O)OC(C)(C)C)CC2)c1
2. CC(C)c1n[nH]cc1-c1ccnc(NC2CCCc3ccccc32)n1 (centres undefined)

Response:
< 5 µM
< 1 µM

Each compound below has a recorded value; state its IC50.
1. Cc1ccc(CNc2cc(-c3cn[nH]c3C(C)C)ccn2)cc1
2. COCCCNc1cc(-c2cn[nH]c2C(C)C)ccn1

Response:
["< 5 µM", "< 5 µM"]

Each compound below has a recorded value; state its IC50.
1. CC(C)c1n[nH]cc1-c1ccnc(NC(C)c2ccccc2)n1 (centres undefined)
2. Cc1nnc(C(C)Nc2nccc(-c3c[nH]nc3C(C)C)n2)[nH]1 (centres undefined)

Response:
< 5 µM
< 15 µM
